These entries and their values trace back to paper PMC5540273.

Property: %Inh; scope: individual compounds
System: MYLK2
condition info: concentration: 1 μM, replicates: in singlicate; n = 1;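 also: KINOMEscan kinase panel screen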
experimental readout: %Inh

{"compound": "CC(=O)N1CCN(c2ccc(Nc3nccc(-c4sc(C(C)C)nc4-c4cccc(NS(=O)(=O)c5cccc(Cl)c5)c4)n3)cn2)CC1 [GSK1660437]", "result": "0%"}
{"compound": "CNC(=O)c1ccccc1Nc1nc(Nc2ccc(N3CCOCC3)cc2)ncc1Cl.Cl [GSK1576028]", "result": "74%"}
{"compound": "CN(c1ccc(NC(=O)Nc2cc(C(F)(F)F)ccc2F)cc1)c1ccnc(Nc2ccc(S(N)(=O)=O)cc2)n1 [GW809893]", "result": "65%"}
{"compound": "c1ccc(-c2cnc3nccnn23)cc1 [AH20685]", "result": "0%"}
{"compound": "CCn1c(-c2nonc2N)nc2c(C#CC(C)(C)O)nc(OC[C@H](N)c3ccccc3)cc21 [GSK943949]", "result": "0%"}
{"compound": "COC(=O)Nc1nc2ccc(Oc3ccc(NC(=O)Nc4cc(C(F)(F)F)ccc4F)cc3)cc2n1C.Cl [GW692089]", "result": "36%"}
{"compound": "COC(=O)Nc1nc2cc(Oc3ccc(NC(=O)Nc4cc(C(F)(F)F)ccc4F)cn3)ccc2[nH]1.Cl.Cl [GW681170]", "result": "0%"}
{"compound": "COc1cccc(NC(=O)NC2CCN(c3ccnc(Nc4cc(OC)c(OC)c(OC)c4)n3)C2)c1 (centres unmarked) [GSK1379763]", "result": "0%"}

###

Tested on: AKT1
condition info: concentration: 1 μM, replicates: in singlicate; n = 1
Property: %Inh; scope: individual compounds

{"compound": "Cl.Cl.NCC(NCc1ccc(-c2ccnc3[nH]ccc23)s1)c1ccccc1 (centres unmarked)", "experimental target": "AKT1", "%Inh (%)": 71}
{"compound": "COC(=O)Nc1nc2ccc(Oc3ccc(NC(=O)Nc4cc(C(F)(F)F)ccc4F)cc3)cc2n1C.Cl", "experimental target": "AKT1", "%Inh (%)": 0}
{"compound": "COc1cc(Nc2ncc3c(C)nc(-c4cc5ccccc5[nH]4)n3n2)cc(OC)c1OC", "experimental target": "AKT1", "%Inh (%)": 8}
{"compound": "Cc1cccc(NC(=O)Nc2ccc(Oc3ncnc4ccn(C)c34)cc2)c1", "experimental target": "AKT1", "%Inh (%)": 0}
{"compound": "CC(=O)N1CCN(c2ccc(Nc3nccc(-c4sc(C(C)C)nc4-c4cccc(NS(=O)(=O)c5cccc(Cl)c5)c4)n3)cn2)CC1", "experimental target": "AKT1", "%Inh (%)": 0}
{"compound": "CCc1ccc(-c2ccc3c(c2)-c2c(cnn2C)S(=O)(=O)N3C)cc1", "experimental target": "AKT1", "%Inh (%)": 0}
{"compound": "O=C(Nc1cccc(-c2nn3ccccc3c2-c2ccnc(Nc3cccc(C(F)(F)F)c3)n2)c1)c1c(F)cccc1F", "experimental target": "AKT1", "%Inh (%)": 0}
{"compound": "COc1cc(Nc2nccc(N3CCC(NC(=O)c4cc5ccccc5s4)C3)n2)cc(OC)c1OC (centres unmarked)", "experimental target": "AKT1", "%Inh (%)": 1}
{"compound": "O=C(Nc1cccc(-c2nn3ncccc3c2-c2ccnc(Nc3ccccc3)n2)c1)c1c(F)cccc1F", "experimental target": "AKT1", "%Inh (%)": 0}
{"compound": "O=C(NC1CCN(c2ccnc(Nc3ccc(F)cc3)n2)C1)c1cc2ccccc2s1 (centres unmarked)", "experimental target": "AKT1", "%Inh (%)": 0}
{"compound": "Nc1ncc(-c2cccnc2)c2scc(-c3ccc4c(c3)CCN4C(=O)Cc3ccccc3)c12", "experimental target": "AKT1", "%Inh (%)": 0}
{"compound": "Cc1cccc(Nc2nc(N[C@H]3CCNC3)ncc2C(N)=O)c1.Cl", "experimental target": "AKT1", "%Inh (%)": 0}
{"compound": "O=C(Nc1ccccc1F)NC1CCN(c2ccnc(Nc3ccc(F)cc3)n2)CC1", "experimental target": "AKT1", "%Inh (%)": 0}
{"compound": "COc1cc(Nc2nccc(-c3c(-c4cccc(NC(=O)c5c(F)cccc5F)c4)nn4ccccc34)n2)cc(OC)c1OC", "experimental target": "AKT1", "%Inh (%)": 8}
